Target: human MC1R (Homo sapiens, UniProt Q01726)
Construct: expressed in transfected cells; host or cells: HEK-293 cells stably expressing hMC1R and the GScAMP22F cAMP sensor
Sequence (Q01726 whole entry): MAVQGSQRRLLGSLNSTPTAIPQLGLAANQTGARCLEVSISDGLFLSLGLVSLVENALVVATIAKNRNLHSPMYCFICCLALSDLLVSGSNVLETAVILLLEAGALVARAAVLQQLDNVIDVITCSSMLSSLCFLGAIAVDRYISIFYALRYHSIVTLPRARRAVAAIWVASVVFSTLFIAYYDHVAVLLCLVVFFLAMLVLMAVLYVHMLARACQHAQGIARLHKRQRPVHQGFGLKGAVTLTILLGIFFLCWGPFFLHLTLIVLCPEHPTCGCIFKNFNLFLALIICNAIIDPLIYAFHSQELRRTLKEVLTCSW
Assay: split-luciferase cAMP sensor assay, agonist mode, hMC1R
Assay type: cell-based
Settings: MC4R versus MC1R
Positions of bridges follow the written chain, without caps; N, C: chain ends. Non-standard residues stand in square brackets, D forms with d. Residues, ends and D or L forms follow the SMILES beside them. NMeA = CN[C@@H](C)C(=O)O
Reported Endpoint: MC4R selectivity vs MC1R

- CC(=O)N[C@@H](CCCNC(=N)N)C(=O)N[C@H]1CSSC[C@@H](C(N)=O)NC(=O)[C@@H](Cc2c[nH]c3ccccc23)NC(=O)[C@H](CCCNC(=N)N)NC(=O)[C@@H](Cc2ccccc2)NC(=O)[C@H](CCCNC(=N)N)NC(=O)[C@H](C)N(C)C1=O [CTX-1269] (Ac-RC[NMeA]R[dF]R[dW]C-NH2; disulfide 2-8 (inferred)): 2.56
